Sourced from ChEMBL document CHEMBL1629644

Assay: Induction of apoptosis in bovine BL3 cells assessed as early apoptotic cells after 24 hrs by annexin V/propidium iodide staining-based FACS analysis
Type: functional, Bos taurus
Design: concentration or dose not given beside the values
The threshold is inclusive: Activity of exactly 20% counts as TRUE; values below receive FALSE.

compound="CC(Oc1ccc(Oc2nc3ccc(Cl)cc3o2)cc1)C(=O)O (stereo unspecified)" assigned_category=FALSE
compound=CN[C@@H]1C[C@H]2O[C@@](C)([C@@H]1OC)n1c3ccccc3c3c4c(c5c6ccccc6n2c5c31)C(=O)NC4 assigned_category=TRUE
compound=CCC[C@@H]1C[C@@H](C(=O)N[C@@H]([C@H]2O[C@H](SC)[C@H](O)[C@@H](O)[C@H]2O)[C@H](C)Cl)N(C)C1 assigned_category=FALSE
compound=Oc1cc(Cl)ccc1Oc1ccc(Cl)cc1Cl assigned_category=TRUE
compound=CO[C@H]1/C=C/O[C@@]2(C)Oc3c(C)c(O)c4c(O)c(c(/C=N/N5CCN(C)CC5)c(O)c4c3C2=O)NC(=O)/C(C)=C\C=C\[C@H](C)[C@H](O)[C@@H](C)[C@@H](O)[C@@H](C)[C@H](OC(C)=O)[C@@H]1C assigned_category=FALSE
compound=O=C(O)c1cn(C2CC2)c2cc(N3CCNCC3)c(F)cc2c1=O assigned_category=FALSE
